src = the supplement of paper PMC13380429

# Test system: HepG2
# ASSAY_PROCEDURE: cell viability relative to DMSO; higher = less toxic
# TEST_SETTINGS: 72 h; 100 nM
READOUT_TYPE: cell viability
Hi, when you answer, please include the unit after the number. Thanks!

Incoming: Consider the molecule CO[C@H]1/C=C/O[C@@]2(C)Oc3c(C)c(O)c4c(O)c(c(/C=N/N5CCN(C6CCCC6)CC5)c(O)c4c3C2=O)NC(=O)/C(C)=C\C=C\[C@H](C)[C@H](O)[C@@H](C)[C@@H](O)[C@@H](C)[C@H](OC(C)=O)[C@@H]1C [rifapentine] and give its recorded cell viability.
Outgoing: 94%

Incoming: Name the recorded cell viability of the molecule listed here: Cc1ncc(CO)c(CO)c1O [pyridoxine]
Outgoing: 91%

Incoming: Tell me cell viability reported for COc1ccc(-c2cc(C(F)F)nn2-c2ccc(S(N)(=O)=O)cc2)cc1F [deracoxib]
Outgoing: 90.5%

Incoming: Please list cell viability recorded for the molecule O=C(O)c1cc(O)c2c3nc4ccccc4oc-3cc(=O)c2n1 [pirenoxine]
Outgoing: 89.5%

Incoming: Give the measured cell viability for N[C@@H]1c2cccnc2[C@H](OC(=O)N2CCC(n3c(=O)[nH]c4ncccc43)CC2)CC[C@H]1c1cccc(F)c1F [rimegepant]
Outgoing: 98.8%

Incoming: Specify measured cell viability for C[C@H](c1ccc(F)cc1CCCC(=O)O)N(c1cc(F)ccc1F)S(=O)(=O)c1ccc(Cl)cc1 .
Outgoing: 94%

Incoming: Please look at this molecule and report its cell viability: CC[C@H](C)[C@H](N)C(=O)O [isoleucine]
Outgoing: 104%

Incoming: Retrieve cell viability measured for CC=CC1=C(C(=O)O)N2C(=O)[C@@H](NC(=O)[C@H](N)c3ccc(O)cc3)[C@H]2SC1 (mixture of isomers) [cefprozil] and print it.
Outgoing: 100%

====

Would you mind telling me the reported cell viability of each entry?
# Tested on: Vero E6
# ASSAY_PROCEDURE: cell viability relative to DMSO; higher = less toxic
# TEST_SETTINGS: 72 h; 10000 nM

Incoming: For the compound Fc1ccc(-n2cc(CCCCN3CCC4(CC3)OCc3ccccc34)c3ccccc32)cc1 [siramesine] , give its measured cell viability value.
Outgoing: 73.5%

Incoming: Output measured cell viability for this item: CC(C)C[C@H](NC(=O)OCc1ccccc1)C(=O)N[C@@H](C[C@@H]1CCNC1=O)C(O)S(=O)(=O)O (some centres not stated) [GC376 sodium]
Outgoing: 108%

Incoming: Answer with the recorded cell viability of CC[C@]12C=CCN3CC[C@@]4(c5cc([C@@]6(C(=O)OC)C[C@@H]7C[C@@H](C(C)(F)F)CN(Cc8c6[nH]c6ccccc86)C7)c(OC)cc5N(C)[C@H]4[C@@](O)(C(=O)OC)[C@@H]1OC(C)=O)[C@@H]32 [Vinflunine Ditartrate] only.
Outgoing: 24.3%

Incoming: Tell us which cell viability value is on record for CC(C)CCN1c2nc(Nc3cc(F)c(O)c(F)c3)ncc2N(C)C(=O)[C@@H]1C [BI-D1870]
Outgoing: 30.9%

Incoming: State, in one line, measured cell viability of CO/N=C1\CN(c2nc3c(cc2F)c(=O)c(C(=O)O)cn3C2CC2)CC1CN (configuration not stated) [gemifloxacin]
Outgoing: 95.7%

Incoming: Look up cell viability of C=C(C)[C@@H]1CCC(C)=C[C@H]1c1c(OC)cc(C)cc1OC [O-1918] and report it.
Outgoing: 102%

Incoming: Report measured cell viability; entry is CC(C)N(CCCCOCC(=O)NS(C)(=O)=O)c1cnc(-c2ccccc2)c(-c2ccccc2)n1 [selexipag]
Outgoing: 93.2%

====

Would you kindly list cell viability for each of these compounds?
# System: Calu-3
# ASSAY_PROCEDURE: cell viability relative to DMSO; higher = less toxic
# TEST_SETTINGS: 72 h; 100 nM
API: value field is a number in %; no unit string.

Incoming: Specify cell viability for CCc1[nH]c(=O)[nH]c1C(=O)c1ccncc1 and stop.
Outgoing: 99.3

Incoming: Provide only the value of recorded cell viability for O=C1C=C2C=C[C@@H]3C[C@@]2(O1)[C@H]1CCCCN31
Outgoing: 101

Incoming: Return value of cell viability for input Oc1ccc(Cl)c2c1CCC2 , no commentary.
Outgoing: 107

Incoming: Let me know recorded cell viability for c1cc(-c2cnn3cc(-c4ccc(N5CCNCC5)cc4)cnc23)c2cccnc2c1 , thanks.
Outgoing: 97.4

Incoming: Specify cell viability for CN(C)C/C=C/C(=O)Nc1ccc(C(=O)Nc2cccc(Nc3ncc(Cl)c(-c4c[nH]c5ccccc45)n3)c2)cc1 and stop.
Outgoing: 71.8

Incoming: Specify cell viability for C[C@H](c1ccc(F)cc1CCCC(=O)O)N(c1cc(F)ccc1F)S(=O)(=O)c1ccc(Cl)cc1 and stop.
Outgoing: 99.4

Incoming: Fill in cell viability for record COc1cc(N2CCC(N3CCN(C)CC3)CC2)ccc1Nc1ncc(Cl)c(Nc2ccccc2P(C)(C)=O)n1
Outgoing: 106

====

# Test system: U2OS
# ASSAY_PROCEDURE: cell viability relative to DMSO; higher = less toxic
# TEST_SETTINGS: 72 h; 1000 nM
For each of the compounds below, state its cell viability.
Lab book: enter the figure in %, no units written.

Incoming: Read off the recorded cell viability for CC(C)C[C@H](NC(=O)OCc1ccccc1)C(=O)N[C@@H](C[C@@H]1CCNC1=O)C(O)S(=O)(=O)O (stereo partly drawn) [GC376 sodium]
Outgoing: 100

Incoming: Answer with the recorded cell viability for the compound listed here: C[C@H]1CNCCCN1S(=O)(=O)c1cccc2cncc(F)c12
Outgoing: 99.8

Incoming: Find the measured cell viability of CC(C)(Cc1ccc2ccccc2c1)NC[C@@H](O)COc1cccc(Cl)c1C#N and report it.
Outgoing: 96.1

Incoming: Respond only with cell viability recorded for CCCC(C)(COC(N)=O)COC(=O)NC(C)C (stereo not drawn)
Outgoing: 102

Incoming: Please give the documented cell viability of CC(C)(C)NC(=O)[C@@H]1C[C@@H]2CCCC[C@@H]2CN1C[C@@H](O)[C@H](Cc1ccccc1)NC(=O)[C@H](CC(N)=O)NC(=O)c1ccc2ccccc2n1
Outgoing: 103

Incoming: Indicate the recorded cell viability value for this compound: CC1=C(C(=O)O)N2C(=O)[C@@H](NC(=O)[C@H](N)c3ccccc3)[C@H]2SC1
Outgoing: 94.7

Incoming: Item COc1cc(N2CCC(N3CCN(C)CC3)CC2)ccc1Nc1ncc(Cl)c(Nc2ccccc2P(C)(C)=O)n1 : provide cell viability
Outgoing: 98.4

Incoming: Specify cell viability for Brc1ccc(NC2C3CC4CC(C3)CC2C4)cc1 (stereo not drawn) and stop.
Outgoing: 96.9

====

What cell count was measured for each of the following?
# Tested on: A549-ACE2 infected with SARS-CoV-2
# ASSAY_PROCEDURE: cell count relative to DMSO; higher = less toxic
# TEST_SETTINGS: 0.3 µM; 24 h
Express your answer in %, writing the number without its unit.

Incoming: Give the reported value of cell count for this record: CN1CC2c3ccccc3Oc3ccc(Cl)cc3C2C1 (centres undefined)
Outgoing: 102

Incoming: For the molecule COC(=O)[C@@]12OC[C@]34[C@H]([C@@H](O)[C@@H]1O)[C@@]1(C)CC(=O)C(O)=C(C)[C@@H]1C[C@H]3OC(=O)[C@H](OC(=O)/C=C(\C)C(C)C)[C@@H]24 [bruceantin] , give its measured cell count value.
Outgoing: 62

Incoming: Provide only the value of recorded cell count for Cc1csc(NC(=O)CSc2ccc(-c3ccccc3)nn2)n1
Outgoing: 97

Incoming: Determine its reported cell count: CC(C)(Cc1ccc2ccccc2c1)NC[C@@H](O)COc1cccc(Cl)c1C#N
Outgoing: 100

====

I'd be grateful if you could share measured cell viability for these entries.
# Test system: Calu-3
# ASSAY_PROCEDURE: cell viability relative to DMSO; higher = less toxic
# TEST_SETTINGS: 72 h; 1 nM
Kindly provide the numeric value in % only, without the unit symbol.

Incoming: State cell viability (Calu-3) of COc1cc(Oc2ccnc3cc(OC)c(OC)cc23)ccc1NC(=O)NC(C)c1nccs1 (stereo not drawn) .
Outgoing: 94.5

Incoming: Param request: cell viability | system Calu-3 | item NC(=S)N/N=C/c1coc2ccccc2c1=O.[Cl][Cu][Cl]
Outgoing: 104

Incoming: Recall the reported cell viability of Cc1c(C(=O)NCc2cccnc2)nn(-c2ccc(Cl)cc2Cl)c1-c1ccc(Cl)cc1 when tested on Calu-3.
Outgoing: 90.5

Incoming: Tell me its cell viability on Calu-3: COCc1nc2c([nH]1)c(=O)n(C)c(=O)n2CC(C)C
Outgoing: 102

Incoming: Give measured cell viability for COc1ccc(C2=N[C@@H](c3ccc(Cl)cc3)[C@@H](c3ccc(Cl)cc3)N2C(=O)N2CCNC(=O)C2)c(OC(C)C)c1 (Calu-3).
Outgoing: 91.6

Incoming: State measured cell viability of the compound COc1ccc(C2CC(c3ccccc3)=NN2c2ccc(S(N)(=O)=O)cc2)cc1 (stereo not drawn) with Calu-3.
Outgoing: 85.8

Incoming: # return cell viability of CS(=O)(=O)N1CCc2c(-c3cnc(N)nc3)nc(N3CCOCC3)nc21 (system: Calu-3)
Outgoing: 94.2

Incoming: Write down the reported cell viability (system: Calu-3) of N#Cc1ccnc(N2C(=O)CC[C@H]2C(=O)N(c2cncc(F)c2)[C@H](C(=O)NC2CC(F)(F)C2)c2ccccc2Cl)c1
Outgoing: 98.8
